The measurements presented in this section are drawn from ChEMBL document CHEMBL4265903.

Assay: Inhibition of Smo-mediated hedgehog signaling pathway in mouse C3H10T1/2 cells after 6 days by Gli-dependent luciferase reporter gene assay
Format: cell-based
Settings: C3H 10T1/2, 144 h
pIC50: −log10 of the molar value.
READOUT_LABEL: pIC50

> print(dat)
                            compound.string  number
1  COc1cc(C(=O)NC(=N)Nc2ccc(C)c(NC(=O)c3ccc(CCc4ccccc4)cc3)c2)cc(OC)c1OC    8.55
2  COc1cc(C(=O)NC(=N)Nc2ccc(C)c(NC(=O)c3ccc(-c4ccccc4)cc3)c2)cc(OC)c1OC    7.82
3  COc1cc(C(=O)NC(=S)Nc2cccc(NC(=O)c3ccccc3)c2)cc(OC)c1OC    6.19
